Below is a list of entries, each paired with its recorded pIC50 value.
# Test system: metabolism of retinoic acid in human breast cancer cells
# protocol: Inhibition of retinoic acid (RA) metabolism (Example C.1)
# Assay type: cell-based
# conditions: MCF-7 human breast cancer cells, 3H-RA as substrate; concentration needed to reduce the amount of metabolites to 50% of the control
Note: pIC50 values are expressed as the negative base-10 logarithm of concentration in M.

COc1ccc(CC(=O)Nc2ccc(C(C(C)C)n3ccnc3)cc2)cc1 (stereo not shown) [Compound 662] ... 9.45
CCC(CC)C(c1ccc(NC(=O)Cc2ccc(O)cc2C)cc1)n1ccnc1 (stereo not shown) [Compound 129] ... 10.63
CC(C)C(c1ccc(NC(=O)Nc2ccncc2)cc1)n1ccnc1 (racemic) [Compound 275] ... 8.37
CC(C)C(c1ccc(NC(=O)Cc2ccc([N+](=O)[O-])cc2)cc1)n1ccnc1 (stereo not shown) [Compound 151] ... 8.68
Cc1cc(CC(=O)Nc2ccc(C(C(C)N(C)C)n3ccnc3)cc2)cc(C)c1C (single isomer, unassigned) [Compound 309] ... 8.44
CC(C)C(c1ccc(NC(=O)Nc2cccc([N+](=O)[O-])c2)cc1)n1ccnc1 (racemic) [Compound 737] ... 8.63

Task item: Provide pIC50, tested on metabolism of retinoic acid in human breast cancer cells, for CCC(CC)C(c1ccc(NC(=O)CCc2ccc(OC)c(OC)c2)cc1)n1cncn1 (racemic) [Compound 10] .
Reply: 8.81

Task item: Provide pIC50, tested on metabolism of retinoic acid in human breast cancer cells, for COc1cccc(NC(=O)Nc2ccc(C(C(C)C)n3ccnc3)cc2)c1 (racemic) [Compound 733] .
Reply: 8.62

Task item: Provide pIC50, tested on metabolism of retinoic acid in human breast cancer cells, for CCOc1ccc(CC(=O)Nc2ccc(C(C(C)C)n3cncn3)cc2)cc1 (stereo not shown) [Compound 135] .
Reply: 8.84

Task item: Provide pIC50, tested on metabolism of retinoic acid in human breast cancer cells, for CC(C)C(c1ccc(NC(=O)Cc2ccc(N)c(I)c2)cc1)n1ccnc1 (stereo not shown) [Compound 148] .
Reply: 8.73

Task item: Provide pIC50, tested on metabolism of retinoic acid in human breast cancer cells, for CC(C)C(c1ccc(NC(=O)C2CCCCC2)cc1)n1ccnc1 (racemic) [Compound 193] .
Reply: 7.92

Task item: Provide pIC50, tested on metabolism of retinoic acid in human breast cancer cells, for C/C(=C\c1ccc(F)cc1)C(=O)Nc1ccc(C(C(C)C)n2cncn2)cc1 (racemic) [Compound 157] .
Reply: 7.07

Task item: Provide pIC50, tested on metabolism of retinoic acid in human breast cancer cells, for CC(C)C(c1ccc(NC(=O)c2ccc3c(c2)OCO3)cc1)n1ccnc1 (racemic) [Compound 232] .
Reply: 8.82
